Experiment: Plasma pharmacokinetics and brain distribution after single IV, IP and oral administration
Assay type: in vivo
Conditions: male, C57BL/6, mouse, in vivo, iv, 10 mg/kg, Mean plasma conc.
Counter-ions that a name gives are not always drawn.
PROPERTY_LABEL: concentration at 0.08 h (ng/mL)

compound="Cc1nc2ccccn2c1-c1csc(Nc2ccc3c(c2)OC(F)(F)O3)n1 [Compound 16, hydrochloride]" endpoint_result=1580

----------
Experiment: in vitro
Format: in vitro ADME, mice
Conditions: mouse, plasma, pH 7.4, % Bound R3
Where a name gives a salt, the structure may show the parent alone.
Exam item: assign fulfilled to entries whose fraction unbound at 4 h, 5 μM is below 0.002 and not fulfilled to entries at or above 0.002. Note that a value of exactly 0.002 receives not fulfilled.

compound="[2H]C([2H])([2H])Oc1ccc(Nc2nc(-c3c(C)nc4ccccn34)cs2)cc1 [Compound 15, hydrochloride]" category=fulfilled
compound="[2H]C1([2H])Oc2ccc(Nc3nc(-c4c(C)nc5ccccn45)cs3)cc2O1 [Compound 17, hydrochloride]" category="not fulfilled"
compound="Cc1nc2ccccn2c1-c1csc(Nc2ccc3c(c2)OC(F)(F)O3)n1 [Compound 16, hydrochloride]" category="not fulfilled"
compound="CC(=O)CC(c1ccccc1)c1c(O)c2ccccc2oc1=O (centres unmarked) [Warfarin, reference compound]" category="not fulfilled"

----------
Test: Plasma pharmacokinetics and brain distribution after single IV, IP and oral administration
Format: in vivo
Settings: male, C57BL/6, mouse, in vivo, iv, 10 mg/kg, Mean plasma conc.
Structures can show the parent of a compound that is named as a salt.
PROPERTY_LABEL: concentration at 0.35 h (ng/mL)

compound="Cc1nc2ccccn2c1-c1csc(Nc2ccc3c(c2)OC(F)(F)O3)n1 [Compound 16, hydrochloride]" units=ng/mL endpoint_result=535

----------
Assay: Plasma pharmacokinetics and brain distribution after single IV, IP and oral administration
Assay type: in vivo
Settings: male, C57BL/6, mouse, in vivo; IV 2 mg/kg, 3 hr; read-out: Brain-to-plasma ratio
Structures can show the parent of a compound that is named as a salt.
PROPERTY_LABEL: Kp at 3 h

molecule="[2H]C([2H])([2H])Oc1ccc(Nc2nc(-c3c(C)nc4ccccn34)cs2)cc1 [Compound 15, hydrochloride]" property_label="Kp at 3 h" endpoint_result=1.64

----------
Experiment: Plasma pharmacokinetics and brain distribution after single IV, IP and oral administration
Type: in vivo
Conditions: male, C57BL/6, mouse; plasma, IV 2 mg/kg; read-out: CL, plasma clearance
Structures can show the parent of a compound that is named as a salt.
Each entry below lists one item and its recorded clearance value.
PROPERTY_LABEL: clearance (mL/min/kg)

compound="[2H]C1([2H])Oc2ccc(Nc3nc(-c4c(C)nc5ccccn45)cs3)cc2O1 [Compound 17, hydrochloride]" property_label=clearance units=mL/min/kg endpoint_result=378
compound="[2H]C([2H])([2H])Oc1ccc(Nc2nc(-c3c(C)nc4ccccn34)cs2)cc1 [Compound 15, hydrochloride]" property_label=clearance units=mL/min/kg endpoint_result=130

----------
Assay: Plasma pharmacokinetics and brain distribution after single IV, IP and oral administration
Assay type: in vivo
Conditions: male, C57BL/6, mouse, in vivo, po, 10 mg/kg, Brain concentration, individual animal
Where a name gives a salt, the structure may show the parent alone.
PROPERTY_LABEL: concentration at 12 h (ng/g)

compound="[2H]C1([2H])Oc2ccc(Nc3nc(-c4c(C)nc5ccccn45)cs3)cc2O1 [Compound 17, hydrochloride]" property_label="concentration at 12 h" units=ng/g endpoint_result=0
